Entry source: ChEMBL document CHEMBL1938299

Molecular target: UniProt P21453
Sequence (P21453 whole entry): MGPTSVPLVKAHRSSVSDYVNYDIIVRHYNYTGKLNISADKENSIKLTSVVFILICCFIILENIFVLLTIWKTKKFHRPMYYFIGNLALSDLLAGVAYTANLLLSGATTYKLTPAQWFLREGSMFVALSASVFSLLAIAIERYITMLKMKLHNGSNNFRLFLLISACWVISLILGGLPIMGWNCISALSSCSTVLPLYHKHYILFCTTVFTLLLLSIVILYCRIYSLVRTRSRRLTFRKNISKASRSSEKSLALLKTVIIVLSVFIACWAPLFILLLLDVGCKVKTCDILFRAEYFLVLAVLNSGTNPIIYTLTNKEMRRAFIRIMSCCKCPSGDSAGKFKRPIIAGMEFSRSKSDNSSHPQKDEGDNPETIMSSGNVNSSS
Assay: Agonist activity at human S1P1 receptor expressed in human U2OS cells co-expressing eGFP assessed as receptor internalization into cytoplasm using Hoechst dye staining
TEST READOUT: log10(EC50) (log10 of the value in nM)
Field: value | Transform: log10 | Quantity: EC50 | Unit: nM

Known results for compounds:
>>> quantitative_readout("Cn1cc(C(=O)Nc2ccc(-c3ccccn3)c(C(F)(F)F)n2)c(=O)c2cnccc21")
2.32
>>> quantitative_readout("Cn1cc(C(=O)Nc2ccc(-c3cccnc3)c(C(F)(F)F)c2)c(=O)c2ccccc21")
2.49
>>> quantitative_readout("Cn1cc(C(=O)Nc2ccc(-c3ccccc3)c(C(F)(F)F)c2)c(=O)c2ncccc21")
3.61
>>> quantitative_readout("Cn1cc(C(=O)Nc2ccc(-c3ccccc3)c(C(F)(F)F)c2)c(=O)c2cnccc21")
1.38
>>> quantitative_readout("Cn1cc(C(=O)Nc2ccc(-c3ccccc3)c(C(F)(F)F)c2)c(=O)c2cccnc21")
2.28

// next item, log10(EC50) requested
[in] Could you please provide reported log10(EC50) for Cn1cc(C(=O)Nc2ccc(-c3ccncc3)c(C(F)(F)F)c2)c(=O)c2ccccc21 ? Thanks!
[out] 2.65

* * *

Test: Solubility of the compound in 0.010 M aqueous hydrogen chloride at pH 7.4
Assay type: physicochemical
Conditions: in the assay text read “hydrogen chloride” for “hydrogen chloride at pH 7.4”
Item-by-item account of solubility
Quick reminder: number only, in µg/mL, skip the unit.

>>> quantitative_readout("COc1ccncc1C(=O)NC(=O)Nc1ccc(-c2ccccc2)c(C(F)(F)F)c1")
17

# evaluate next
[in] Please report solubility for the following molecule: Cn1cc(C(=O)Nc2ccc(-c3cccnc3)c(C(F)(F)F)c2)c(=O)c2ccccc21
[out] 23

* * *

Below is a list of entries, each paired with its recorded solubility value.
Test: Solubility of the compound in simulated intestinal fluid at pH 7.4
Assay type: physicochemical
Express it in µg/mL; write the number only.

The following compounds have reported results that may help.
>>> quantitative_readout("Cn1cc(C(=O)Nc2ccc(-c3ccccn3)c(C(F)(F)F)c2)c(=O)c2ccccc21")
5.2
>>> quantitative_readout("Cn1cc(C(=O)Nc2ccc(-c3ccccc3)c(C(F)(F)F)n2)c(=O)c2cnccc21")
10

[in] Please give measured solubility of the following entry: Cn1nc(C(=O)Nc2ccc(-c3ccccc3)c(C(F)(F)F)c2)c(=O)c2ccccc21
[out] 12

[in] Assign solubility to the following record: Cn1cc(C(=O)Nc2ccc(-c3ccccc3)c(C(F)(F)F)c2)c(=O)c2ccncc21
[out] 6.1

* * *

Overview of recorded microsomal CLint for various compounds
Assay: Intrinsic clearance in rat liver microsomes assessed per mg of protein after 30 mins
Assay type: ADME, Microsome
Details: read-out: CLH

[in] Please give measured microsomal CLint of the following entry: Cn1cc(C(=O)Nc2ccc(-c3cccnc3)c(C(F)(F)F)c2)c(=O)c2ccccc21
[out] 18 µL/min/mg

[in] Report microsomal CLint, nothing else, for this compound: Cn1cc(C(=O)Nc2cc(C(F)(F)F)c(-c3ccccc3)cn2)c(=O)c2ccccc21
[out] < 14 µL/min/mg

[in] Return reported microsomal CLint. Input compound: Cn1cc(C(=O)Nc2cnc(-c3ccccc3)c(C(F)(F)F)c2)c(=O)c2ccccc21
[out] < 14 µL/min/mg

[in] Consider the compound Cn1cc(C(=O)Nc2ccc(-c3ccccc3)c(C(F)(F)F)n2)c(=O)c2cnccc21 . State its measured microsomal CLint.
[out] < 14 µL/min/mg

[in] Read off the recorded microsomal CLint for Cn1cc(C(=O)Nc2ccc(-c3ccccc3)c(C(F)(F)F)n2)c(=O)c2ccccc21
[out] < 14 µL/min/mg

[in] Could you please provide reported microsomal CLint for Cn1cc(C(=O)Nc2ccc(-c3ccccc3)c(C(F)(F)F)c2)c(=O)c2ccccc21 ? Thanks!
[out] < 14 µL/min/mg

[in] Return microsomal CLint for the following compound: Cn1cc(C(=O)Nc2ccc(-c3ccccc3)c(C(F)(F)F)c2)c(=O)c2ncccc21
[out] < 14 µL/min/mg

[in] Please report the measured microsomal CLint for Cn1cc(C(=O)Nc2ccc(-c3ccccc3)c(C(F)(F)F)c2)c(=O)c2cccnc21
[out] < 14 µL/min/mg

[in] // fetch microsomal CLint given entry Cn1cc(C(=O)Nc2ccc(-c3ccccc3)c(C(F)(F)F)c2)c(=O)c2cnccc21
[out] < 14 µL/min/mg

[in] For Cn1cc(C(=O)Nc2ccc(-c3ccccn3)c(C(F)(F)F)c2)c(=O)c2cnccc21 , write its microsomal CLint.
[out] 15 µL/min/mg
